Test system: Fer (mouse)
Assay: phosphorylation enrichment, bacterial display (enrichment ratio); higher = better substrate or ligand; peptides without Tyr show the background
Response key: y means phosphorylation enrichment >= 0.5; n means phosphorylation enrichment < 0.5.

Exam item: decide whether the reported phosphorylation enrichment for VTQEPYELYCE [CBL_Y368_Q367P] is at least 0.5.
y

Check this sequence for phosphorylation enrichment at or above 0.5: NKHTNYTMEHI [ACTN1_Y708]
n

Check if phosphorylation enrichment >= 0.5 (inclusive). Item: VQQVIYATGAL [MYH7_Y422]
y

Check this sequence for phosphorylation enrichment at or above 0.5: FPKARYHWLVL [APTX_Y214_YF]
y

Record ARDVIYIIIPA [FRKtide_2014] ; criterion: phosphorylation enrichment no lower than 0.5. Met?
y

Could you tell me if the measured phosphorylation enrichment of KEKLCYVAPDF [ACTA1_Y220_L223P] reaches 0.5 or more?
n

Is reported phosphorylation enrichment greater than or equal to 0.5 here: DRLASSLDKVR [KRT10_Y160_Y160S]
n

Kindly determine if phosphorylation enrichment recorded for SVMAEYGLFAA [VSX2_Y219_G223A_YF] is above or exactly 0.5.
y

API: above_or_equal(metric=phosphorylation enrichment, cutoff=0.5) for item SFTDPYAQPPL [KMT2D_Y2378_YF]
n

Determine whether measured phosphorylation enrichment meets or exceeds 0.5 for VDESLYKTHPQ [HK1_Y417_G414E]
y

Quick check, phosphorylation enrichment >= 0.5? YTFNSYYMHWV [IGHV1-46_Y51_T49N]
y

Threshold query (phosphorylation enrichment >= 0.5) on RLLRGHDQSAY [HLA-C_Y137_Y137H]
n

Is it the case that HEHVGYTTLNR [CHN1_Y148_Y143H] has phosphorylation enrichment reaching or exceeding 0.5?
n

Quick check: does CTLLPYFSARV [DGKE_Y269_YF] have phosphorylation enrichment greater than or equal to 0.5?
y

Test whether the sequence YISLIYTNYEV [GSTP1_Y109_A114V] records phosphorylation enrichment of 0.5 or higher.
y

Decide: is the reported value of phosphorylation enrichment for TVLGEYASPKG [CYP24A1_Y407_L409S] equal to or greater than 0.5?
n

API: above_or_equal(metric=phosphorylation enrichment, cutoff=0.5) for item EREYKYGAHNH [OAT_Y50_Y55H]
n

Please tell me: is the sequence VVQGIYGFHHH [UFSP2_Y285_Y290H_YF] at or over 0.5 in terms of phosphorylation enrichment?
y

# bool: phosphorylation enrichment of CFTRKYTLPPG [HSPB1_Y142] >= 0.5
n

Item EFEGLYQEGGG [TMEM159_Y159] with phosphorylation enrichment of 0.5 or above?
y

API: above_or_equal(metric=phosphorylation enrichment, cutoff=0.5) for item CEDGTYSPEIS [PTDSS1_Y424]
y

Identify whether the reported phosphorylation enrichment of the following sequence is 0.5 or greater: FIATQYSLCPR [LBR_Y166_R169C_YF]
y

Is it the case that LRVHSYKSMQP [DRC7_Y516] has phosphorylation enrichment reaching or exceeding 0.5?
y

In plain terms: is recorded phosphorylation enrichment at least 0.5 for QTLTDYDTRFF [CSNK2A3_Y131_I133T_YF] ?
y

---

Target: FGFR1 (UniProt P11362)
Sequence (P11362 whole entry, looked up): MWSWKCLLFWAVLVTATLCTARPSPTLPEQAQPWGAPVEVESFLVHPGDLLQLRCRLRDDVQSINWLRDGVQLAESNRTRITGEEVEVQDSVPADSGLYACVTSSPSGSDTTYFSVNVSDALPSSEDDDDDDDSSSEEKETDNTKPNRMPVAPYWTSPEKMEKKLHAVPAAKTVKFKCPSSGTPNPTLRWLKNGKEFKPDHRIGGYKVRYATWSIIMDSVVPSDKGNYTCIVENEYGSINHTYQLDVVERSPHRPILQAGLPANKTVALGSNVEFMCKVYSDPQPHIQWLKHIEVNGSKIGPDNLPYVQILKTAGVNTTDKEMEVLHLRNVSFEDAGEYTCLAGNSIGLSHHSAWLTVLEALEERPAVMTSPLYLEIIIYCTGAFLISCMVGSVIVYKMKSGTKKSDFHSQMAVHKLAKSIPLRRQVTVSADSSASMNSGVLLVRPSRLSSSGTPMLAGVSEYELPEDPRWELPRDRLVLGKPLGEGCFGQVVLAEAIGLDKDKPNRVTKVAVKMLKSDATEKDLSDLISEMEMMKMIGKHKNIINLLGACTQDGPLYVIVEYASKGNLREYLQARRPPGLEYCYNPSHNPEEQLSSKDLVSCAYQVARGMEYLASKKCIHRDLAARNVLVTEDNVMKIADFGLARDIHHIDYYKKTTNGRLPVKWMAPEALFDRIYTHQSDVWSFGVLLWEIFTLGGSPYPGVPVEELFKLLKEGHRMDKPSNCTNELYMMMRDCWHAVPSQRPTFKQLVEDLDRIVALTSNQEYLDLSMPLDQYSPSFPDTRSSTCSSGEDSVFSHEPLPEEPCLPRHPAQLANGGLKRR
Experiment: phosphorylation enrichment, bacterial display (enrichment ratio); higher = better substrate or ligand; peptides without Tyr show the background
Rule: phosphorylation enrichment under 0.5 gives f, otherwise t.

Textbook exercise: given the entry FSAGTYPRLEE [SYCN_Y108] , state whether its phosphorylation enrichment is greater than or equal to 0.5.
f

phosphorylation enrichment >= 0.5 for VRFTEYETQVK [TARDBP_Y155] ?
f

Is phosphorylation enrichment at least 0.5? Consider MKGDFYRFLAE [YWHAG_Y131_YF]
f

// inclusive: phosphorylation enrichment at least 0.5? input: VLNDAYENLTR [SYNE2_Y3255]
t

Threshold query (phosphorylation enrichment >= 0.5) on NLRQQYNSPQE [UMPS_Y432_G429R]
f

Does phosphorylation enrichment meet or surpass 0.5 for ALPGEYIPTVF [RAC1_Y32_F28L] ?
t

Is phosphorylation enrichment for QMQAAYQKVVA [HBD_Y131] at or above 0.5?
f

Say whether KVWGIYDCQQP [CYP3A7_Y75] shows phosphorylation enrichment of 0.5 or more.
t

Threshold query (phosphorylation enrichment >= 0.5) on RLLRGYDQSAF [HLA-C_Y137_YF]
f

// inclusive: phosphorylation enrichment at least 0.5? input: VAMDDYLKNVV [LRRK2_Y707_M712V]
f

Hello, I need to know if PFTRNYYVQAV [CYBA_Y87_R90Q] has measured phosphorylation enrichment not below 0.5. Thanks!
t

Say whether CTLLPYFSARV [DGKE_Y269_YF] shows phosphorylation enrichment of 0.5 or more.
t

// inclusive: phosphorylation enrichment at least 0.5? input: DSEIRYLSADS [TTF1_Y476]
t

---

Molecular target: FGFR3 (UniProt P22607)
Sequence (P22607 whole entry, looked up): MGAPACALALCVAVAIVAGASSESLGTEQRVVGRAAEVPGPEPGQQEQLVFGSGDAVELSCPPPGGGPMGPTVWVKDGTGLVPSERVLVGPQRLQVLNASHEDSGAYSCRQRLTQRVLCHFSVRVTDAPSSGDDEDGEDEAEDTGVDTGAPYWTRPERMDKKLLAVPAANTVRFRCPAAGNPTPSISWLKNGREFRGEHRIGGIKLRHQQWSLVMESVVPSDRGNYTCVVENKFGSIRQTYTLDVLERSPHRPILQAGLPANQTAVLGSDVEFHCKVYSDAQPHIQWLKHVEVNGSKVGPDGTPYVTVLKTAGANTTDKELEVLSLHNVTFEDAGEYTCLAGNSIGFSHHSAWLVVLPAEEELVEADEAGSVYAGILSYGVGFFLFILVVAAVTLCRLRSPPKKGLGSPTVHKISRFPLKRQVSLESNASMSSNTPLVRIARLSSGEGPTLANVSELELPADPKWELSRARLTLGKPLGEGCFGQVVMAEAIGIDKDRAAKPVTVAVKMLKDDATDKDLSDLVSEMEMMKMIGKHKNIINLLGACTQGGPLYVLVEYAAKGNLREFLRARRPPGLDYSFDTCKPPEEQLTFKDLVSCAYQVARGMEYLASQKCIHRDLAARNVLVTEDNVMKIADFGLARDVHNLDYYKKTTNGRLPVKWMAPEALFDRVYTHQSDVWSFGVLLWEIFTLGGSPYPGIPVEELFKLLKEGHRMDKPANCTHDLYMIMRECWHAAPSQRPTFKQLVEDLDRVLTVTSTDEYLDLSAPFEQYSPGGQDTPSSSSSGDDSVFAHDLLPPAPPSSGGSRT
Test: phosphorylation enrichment, bacterial display (enrichment ratio); higher = better substrate or ligand; peptides without Tyr show the background
Respond with class 1 for phosphorylation enrichment values of 0.6 and above, class 0 for values below.

# check: phosphorylation enrichment of ALPGEYIPTVF [RAC1_Y32_F28L] is greater than or equal to 0.6
class 1

Is it the case that RNYDTYTAGLS [RHBDD1_Y264] has phosphorylation enrichment reaching or exceeding 0.6?
class 0

Does the reported phosphorylation enrichment for RGFRVCFTPDS [PTPRF_Y450_Y450C_YF] fall at or above the 0.6 mark?
class 1

Check if phosphorylation enrichment >= 0.6 (inclusive). Item: ANFTEYVATSW [CDKL5_Y171_R175S_YF]
class 1

Item SIFKDYFRFNF [PLA2G2D_Y85_YF] with phosphorylation enrichment of 0.6 or above?
class 1

Is the recorded value of phosphorylation enrichment equal to or greater than 0.6 for this sequence? DLAAQYTTVGR [SGSH_Y240]
class 0

Kindly determine if phosphorylation enrichment recorded for YNNYGYGSDGF [HNRNPH3_Y161_N163S] is above or exactly 0.6.
class 1

Hello, I need to know if SEQNNYSRVAN [CWC22_Y797_R794Q] has measured phosphorylation enrichment not below 0.6. Thanks!
class 0

Say whether AVAFVYYKSIG [ADGRL4_Y301] shows phosphorylation enrichment of 0.6 or more.
class 1

State whether the measured phosphorylation enrichment reaches 0.6, counting equality as reaching it, for YMLYQYLKQIE [RPAP3_Y569_D564Y]
class 1

Identify whether the reported phosphorylation enrichment of the following sequence is 0.6 or greater: GSSKIYFLHAD [TLR5_Y108_P112A]
class 1

Has RHLLRYLSWTV [CLCNKB_Y93_S88R] a recorded phosphorylation enrichment greater than or equal to 0.6?
class 0

---

Molecular target: SHP2-C SH2;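 note: peptide library displayed on the E. coli surface as eCPX fusions, selected cells deep-sequenced, score is each peptide's frequency after selection divided by its frequency in the input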
Test: SH2 binding enrichment of the phosphorylated peptide, bacterial display (enrichment ratio); higher = better substrate or ligand; peptides without Tyr show the background
Response key: met means SH2 binding enrichment >= 0.7; not met means SH2 binding enrichment < 0.7.

Is it the case that KSIEEYLKLVG [RASAL2_Y381] has SH2 binding enrichment reaching or exceeding 0.7?
met

Test whether the sequence RLAKTYETTLK [ALB_Y377_E382K] records SH2 binding enrichment of 0.7 or higher.
not met

Reported SH2 binding enrichment at or above 0.7? FTGNTYRVGDT [FN1_Y106_YF]
met

Is SH2 binding enrichment for LPKEQYLCTKE [AFG3L2_Y614_Y616C] at or above 0.7?
not met

Dear colleague, could you confirm whether INITIYGKTFR [EFHC1_Y177] has SH2 binding enrichment at or above 0.7?
not met

Check the entry VGQRPYQPLPE [REEP3_Y170] : does SH2 binding enrichment equal or exceed 0.7?
met

Answer whether SH2 binding enrichment of MYDKEYYSVHN [MET_Y1234] is greater than or equal to 0.7.
not met

Evaluate DGMADYSDPSF [CDC5L_Y459_YF] : SH2 binding enrichment at minimum 0.7?
not met

In plain terms: is recorded SH2 binding enrichment at least 0.7 for LADKPYTFEYY [FXN_Y118_D122Y] ?
met

Answer whether SH2 binding enrichment of ISGLKYPVSQQ [BTK_Y375_R372G] is greater than or equal to 0.7.
not met

Could you verify whether the entry RGFRVYFTPDS [PTPRF_Y450_YF] shows SH2 binding enrichment of no less than 0.7?
met

SH2 binding enrichment >= 0.7 for IQVDAYFSPIH [ADSL_Y432] ?
not met

---

Consider the following sequences; for each one, report its phosphorylation enrichment.
Biological target: FGFR3 (UniProt P22607)
Test: phosphorylation enrichment, bacterial display (enrichment ratio); higher = better substrate or ligand; peptides without Tyr show the background
// response body must contain only the number

// returns reported phosphorylation enrichment for input MDYRSYPHEYG [RBM10_Y44_R46H]
0.632

What does the record list as phosphorylation enrichment for SVVVPYEPPKV [TP53_Y220_E224K] ?
0.612

Bench note: what phosphorylation enrichment did VMLENYSNLVS [ZFP69_Y109] show?
0.608

Suppose we examine the sequence ERLWDCGMSSS [F8_Y1728_Y1728C] ; what phosphorylation enrichment value has been reported?
0.537

Given the sequence ETDTRYFDEEF [AKT1_Y437] , what is its reported phosphorylation enrichment?
0.81

Given the sequence QPEDIYHQTWA [GBA_Y244_G241E] , what is its reported phosphorylation enrichment?
4.93

May I ask what phosphorylation enrichment has been recorded for AAVDEYLEHRR [FAM221A_Y17_Y20H] ?
0.695

// returns reported phosphorylation enrichment for input FRVAGYETQGG [TIA1_Y383_YF]
0.553

Data request, read-out phosphorylation enrichment, for VPFAQYLAMNK [HARS1_Y138_R137Q]
0.536

phosphorylation enrichment for EHLNRYISDTF [TTLL10_Y446] ?
0.567

For the sequence shown here, PVKTPYSLKRW [BMPR2_Y979_R974P] , give the reported phosphorylation enrichment.
0.789

Look at this sequence and give its reported phosphorylation enrichment. DLDTEYGSGFP [RNASEH2A_Y206_D205E_YF]
0.958

Query (sequence): SLQFEYVHYGG [CDC14A_Y591_S589F] ; field requested: phosphorylation enrichment
0.742

# query: phosphorylation enrichment of entry TGEKLYQRKEF [ZNF283_Y627]
0.489

Bench note: what phosphorylation enrichment did RPFFLYVAFHD [SGSH_Y174] show?
0.941

# query: phosphorylation enrichment of entry DNEALYDICFR [TUBB2B_Y208]
0.917

Quick check: phosphorylation enrichment of MSRNLYSGDYY [DDR2_Y736] ?
5.43

Entry VGSIEYLKREW [KCNMA1_Y885] has what phosphorylation enrichment?
0.612

What value of phosphorylation enrichment has been recorded for this entry: HAVFVCDICHV [TWNK_Y508_Y508C_YF]
0.775

Please give the measured phosphorylation enrichment for this sequence: MPAVTYTLAMR [MEGF10_Y895_P897L]
0.73

# input sequence: DSSIRYLQEIH [FGG_Y135_Y140H] ; wanted: its phosphorylation enrichment
0.509

phosphorylation enrichment lookup needed for TRNRDYDDIDD [TTYH2_Y424] , thanks.
0.665

Recorded phosphorylation enrichment of TFFQMYDKGLV [IARS2_Y231_YF] , please.
0.623

Quick one: phosphorylation enrichment of LISVSYDDWDF [GRIN2A_Y281_YF] ?
1.09

# query: phosphorylation enrichment of entry KIKLNYTLPQD [NRAP_Y523_N519I]
0.623

// lookup phosphorylation enrichment for NVTGHYISPFH [PPA2_Y59]
0.422

What phosphorylation enrichment value was documented for this sequence, GGPAEYLRRAS [PKLR_Y38_G37E] ?
0.415

Name the reported phosphorylation enrichment value associated with the sequence YGLPRYRWLTH [TSPAN12_Y143]
0.475

Please report the recorded phosphorylation enrichment for GHGEEYPAAGA [NOTCH3_Y2221] .
0.719

Entry source: the supplement of paper PMC10065799
